# Tested on: Canine Purkinje fiber
# assay.procedure: In vitro electro-physiological screen using canine Purkinje fibers (action potential characteristics, microelectrode)
# Assay type: cell-based
# condition.notes: Canis lupus familiaris, purkinje; at 100 μM; basic cycle length 1000 milliseconds; read-out: MaxAPD95: maximum observed effect on APD95 from control value
Where a name gives a salt, the structure may show the parent alone.
Some molecules, each annotated with its measured Emax at 100 µM.

| molecule | Emax at 100 µM [%] |
| --- | --- |
| CS(=O)(=O)Nc1ccc(C(=O)Cn2ccnc2)cc1 [II-2] | 67 |
| CCCCCCC[n+]1ccn(C/C=C\Cc2ccc(Cl)cc2)c1 [Compound I-42] | 12 |
| O=[N+]([O-])c1ccc(CCn2ccnc2)cc1 [II-8, hydrochloride] | 29 |
| CS(=O)(=O)Nc1ccc(CCn2ccnc2)cc1 [II-7] | 47 |
| O=C(Cn1ccnc1)c1ccc([N+](=O)[O-])cc1 [II-3, hydrochloride] | 29 |
| O=[N+]([O-])c1ccc(C(O)Cn2ccnc2)cc1 (stereo not drawn) [II-6, α-(4-Nitrophenyl)-1H-imidazole-1-ethanol] | 28 |
